- TARGET DESC: T1, solubilised human IR-A (semipurified by wheat germ agglutinin chromatography from baby hamster kidney (BHK) … (human, UniProt P06213-2 28-1370))
- T1 construct: mature; Detergent-solubilised holoreceptor captured by anti-IR mouse antibody 83-7 on SPA beads; the precursor is processed into alpha and beta chains; also called hIRA; human insulin receptor (IR), A isoform
- T1 sequence (P06213 other isoform, or with tags, fused parts or gaps limits assumed): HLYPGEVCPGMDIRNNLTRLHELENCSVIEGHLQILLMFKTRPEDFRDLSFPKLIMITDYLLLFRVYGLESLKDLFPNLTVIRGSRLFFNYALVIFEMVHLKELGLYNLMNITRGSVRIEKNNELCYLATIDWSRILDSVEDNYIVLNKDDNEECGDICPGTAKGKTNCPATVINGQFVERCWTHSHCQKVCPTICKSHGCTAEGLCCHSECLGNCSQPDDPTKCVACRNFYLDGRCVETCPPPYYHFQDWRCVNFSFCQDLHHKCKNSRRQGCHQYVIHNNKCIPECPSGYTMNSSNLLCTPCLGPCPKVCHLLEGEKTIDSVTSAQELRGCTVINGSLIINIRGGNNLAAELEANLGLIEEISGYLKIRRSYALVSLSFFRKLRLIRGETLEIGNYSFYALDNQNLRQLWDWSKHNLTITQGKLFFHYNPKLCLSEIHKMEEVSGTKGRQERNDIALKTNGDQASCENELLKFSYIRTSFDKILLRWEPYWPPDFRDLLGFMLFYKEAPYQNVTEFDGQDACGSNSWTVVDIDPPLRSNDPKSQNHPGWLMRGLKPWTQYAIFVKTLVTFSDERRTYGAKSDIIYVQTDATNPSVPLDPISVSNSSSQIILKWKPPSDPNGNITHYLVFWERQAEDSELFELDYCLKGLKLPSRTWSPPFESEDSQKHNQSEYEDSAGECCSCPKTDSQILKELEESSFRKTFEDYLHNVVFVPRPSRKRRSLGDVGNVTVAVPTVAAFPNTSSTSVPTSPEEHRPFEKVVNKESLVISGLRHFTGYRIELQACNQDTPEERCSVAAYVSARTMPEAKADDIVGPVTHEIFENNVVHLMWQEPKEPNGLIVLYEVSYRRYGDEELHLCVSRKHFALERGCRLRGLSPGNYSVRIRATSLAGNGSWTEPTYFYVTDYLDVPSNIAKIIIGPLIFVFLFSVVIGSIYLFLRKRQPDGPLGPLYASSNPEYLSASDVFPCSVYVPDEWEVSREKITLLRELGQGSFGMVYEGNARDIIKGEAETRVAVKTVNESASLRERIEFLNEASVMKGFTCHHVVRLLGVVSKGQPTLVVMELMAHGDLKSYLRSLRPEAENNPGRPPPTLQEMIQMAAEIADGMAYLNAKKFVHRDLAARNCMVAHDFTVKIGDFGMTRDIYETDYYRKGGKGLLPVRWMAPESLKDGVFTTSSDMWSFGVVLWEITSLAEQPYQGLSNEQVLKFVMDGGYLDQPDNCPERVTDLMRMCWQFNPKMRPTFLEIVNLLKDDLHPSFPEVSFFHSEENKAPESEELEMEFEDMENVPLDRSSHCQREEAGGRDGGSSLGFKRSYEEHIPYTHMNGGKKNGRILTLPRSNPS
- PROTOCOL NOTES: SPA competition vs [125I-A14Y]-human insulin, solubilised hIR-A, 0% HSA
The binders listed here are annotated with their relative binding affinity (% rel to HI).

Example binders with recorded relative binding affinity (% rel to HI):
BINDER	relative binding affinity (% rel to HI)
A14E, A22K(N(eps)hexadecanedioyl-gGlu-2xOEG), B3E, B27E, B28E, B29R, desB30 human insulin (ligand, not fully specified; Lys A22 acylated on N(eps) with hexadecanedioyl-gGlu-2xOEG, Two-chain acylated insulin analogue; also called Ex. No. 26) chain 1: GIVEQCCTSICSLEQLENYCNK chain 2: FVEQHLCGSHLVEALYLVCGERGFFYEER	63.7 % rel to HI
A8R, A22K(N(eps)tetradecanedioyl-4xgGlu), B3E, B26E, B29R, desB30 human insulin (ligand, not fully specified; Lys A22 acylated on N(eps) with tetradecanedioyl-4xgGlu, Two-chain acylated insulin analogue; also called Ex. No. 15) chain 1: GIVEQCCRSICSLYQLENYCNK chain 2: FVEQHLCGSHLVEALYLVCGERGFFETPR	294 % rel to HI

Alright, here's another binder for you.
Q: Look at this binder and give its reported relative binding affinity (% rel to HI). A8R, A22K(N(eps)tetradecanedioyl-4xgGlu), B3E, B27E, B28R, desB29, desB30 human insulin (ligand, not fully specified; Lys A22 acylated on N(eps) with tetradecanedioyl-4xgGlu, Two-chain acylated insulin analogue; also called Ex. No. 17) chain 1: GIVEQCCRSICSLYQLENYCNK chain 2: FVEQHLCGSHLVEALYLVCGERGFFYER
A: 243 % rel to HI

Cited source: patent US20180305431A1
